measurementProtocol: Safety, tolerability and pharmacokinetics in healthy subjects, single dose (Example 7)
Assay type: in vivo, human
recordedConditions: human, plasma, oral, single dose 30 mg capsules, read-out: AUC0-24

{"compound": "N#Cc1ccc(N2N=C3c4ccc(C(=O)N5CCC(O)CC5)nc4CC[C@@H]3[C@@H]2C2CCCC2)cc1Cl [Compound I]", "AUC(0-t) [ng·h/mL]": 5020}

====

measurementProtocol: Effect of surfactants on absorption in SD rats (Example 4-1)
recordedConditions: rat, plasma, oral, 1 mg/kg

{"molecule": "N#Cc1ccc(N2N=C3c4ccc(C(=O)N5CCC(O)CC5)nc4CC[C@@H]3[C@@H]2C2CCCC2)cc1Cl", "unitName": "%", "bioavailability": 64.7}

====

measurementProtocol: Safety, tolerability and pharmacokinetics in healthy subjects, single dose (Example 7)
Format: in vivo, human
recordedConditions: human, plasma, oral, single dose 0.5 to 30 mg/day, read-out: AUC0-24 (range over dose groups)
outcomeMeasure: AUC(0-t)

{"compound": "N#Cc1ccc(N2N=C3c4ccc(C(=O)N5CCC(O)CC5)nc4CC[C@@H]3[C@@H]2C2CCCC2)cc1Cl [Compound I]", "recordedValue": "162 to 5020 ng·h/mL"}

====

Some compounds, each annotated with its measured BA %.
measurementProtocol: Absorption of Compound I of different particle sizes/formulations in male SD rats (Example 3-1)
Format: in vivo
recordedConditions: intragastric single dose 1.0 mg/kg, absolute bioavailability vs IV 2.0 mg/kg
outcomeMeasure: BA % (%)

{"compound": "N#Cc1ccc(N2N=C3c4ccc(C(=O)N5CCC(O)CC5)nc4CC[C@@H]3[C@@H]2C2CCCC2)cc1Cl [Compound I with D90 of 21.7 μm]", "outcomeMeasure": "BA %", "recordedValue": 54.6}
{"compound": "N#Cc1ccc(N2N=C3c4ccc(C(=O)N5CCC(O)CC5)nc4CC[C@@H]3[C@@H]2C2CCCC2)cc1Cl [Compound I with D90 of 41.5 μm]", "outcomeMeasure": "BA %", "recordedValue": 34.8}
{"compound": "N#Cc1ccc(N2N=C3c4ccc(C(=O)N5CCC(O)CC5)nc4CC[C@@H]3[C@@H]2C2CCCC2)cc1Cl [Compound I with D90 of 72.0 μm]", "outcomeMeasure": "BA %", "recordedValue": 13.2}
{"compound": "N#Cc1ccc(N2N=C3c4ccc(C(=O)N5CCC(O)CC5)nc4CC[C@@H]3[C@@H]2C2CCCC2)cc1Cl [Compound I with D90 of 3.8 μm]", "outcomeMeasure": "BA %", "recordedValue": 66.9}
{"compound": "N#Cc1ccc(N2N=C3c4ccc(C(=O)N5CCC(O)CC5)nc4CC[C@@H]3[C@@H]2C2CCCC2)cc1Cl [Compound I with D90 of 538 nm]", "outcomeMeasure": "BA %", "recordedValue": 82.3}

====

measurementProtocol: 13-week toxicity and pharmacokinetic study in SD rats with 4-week recovery (Example 5)
Type: in vivo
recordedConditions: male, SD, rat, in vivo, po, 3 mg/kg/day, male SD rats, 3 mg/kg/day intragastric, 13 weeks; read-out: AUC0-24 h

{"molecule": "N#Cc1ccc(N2N=C3c4ccc(C(=O)N5CCC(O)CC5)nc4CC[C@@H]3[C@@H]2C2CCCC2)cc1Cl", "AUC(0-t) [ng·h/mL]": 5430}

====

measurementProtocol: Safety, tolerability and pharmacokinetics in healthy subjects, single dose (Example 7)
Type: in vivo, human
recordedConditions: human, plasma, oral, single dose 0.5 mg
outcomeMeasure: half-life (h)

{"molecule": "N#Cc1ccc(N2N=C3c4ccc(C(=O)N5CCC(O)CC5)nc4CC[C@@H]3[C@@H]2C2CCCC2)cc1Cl", "outcomeMeasure": "half-life", "recordedValue": 61.5}
